The reported measurements were obtained from paper PMC5704485.

molecular target: C933A/C370A mixture (mutant mix) of NrdJd (Stackebrandtia nassauensis, UniProt D3Q6G1, C370A/C933A); construct: equimolar mixture of two separately purified full-length single mutants (not a double mutant); assay: effector titration of CDP reductase activity, HPLC; details: half-maximal activation by allosteric effector; equimolar mixture of two single mutants; substrate CDP; reductant TCEP; AdoCbl; standard assay Tris pH 8.0, 20 mM MgCl2, room temperature
Sequence (D3Q6G1 entry or part of it C370A): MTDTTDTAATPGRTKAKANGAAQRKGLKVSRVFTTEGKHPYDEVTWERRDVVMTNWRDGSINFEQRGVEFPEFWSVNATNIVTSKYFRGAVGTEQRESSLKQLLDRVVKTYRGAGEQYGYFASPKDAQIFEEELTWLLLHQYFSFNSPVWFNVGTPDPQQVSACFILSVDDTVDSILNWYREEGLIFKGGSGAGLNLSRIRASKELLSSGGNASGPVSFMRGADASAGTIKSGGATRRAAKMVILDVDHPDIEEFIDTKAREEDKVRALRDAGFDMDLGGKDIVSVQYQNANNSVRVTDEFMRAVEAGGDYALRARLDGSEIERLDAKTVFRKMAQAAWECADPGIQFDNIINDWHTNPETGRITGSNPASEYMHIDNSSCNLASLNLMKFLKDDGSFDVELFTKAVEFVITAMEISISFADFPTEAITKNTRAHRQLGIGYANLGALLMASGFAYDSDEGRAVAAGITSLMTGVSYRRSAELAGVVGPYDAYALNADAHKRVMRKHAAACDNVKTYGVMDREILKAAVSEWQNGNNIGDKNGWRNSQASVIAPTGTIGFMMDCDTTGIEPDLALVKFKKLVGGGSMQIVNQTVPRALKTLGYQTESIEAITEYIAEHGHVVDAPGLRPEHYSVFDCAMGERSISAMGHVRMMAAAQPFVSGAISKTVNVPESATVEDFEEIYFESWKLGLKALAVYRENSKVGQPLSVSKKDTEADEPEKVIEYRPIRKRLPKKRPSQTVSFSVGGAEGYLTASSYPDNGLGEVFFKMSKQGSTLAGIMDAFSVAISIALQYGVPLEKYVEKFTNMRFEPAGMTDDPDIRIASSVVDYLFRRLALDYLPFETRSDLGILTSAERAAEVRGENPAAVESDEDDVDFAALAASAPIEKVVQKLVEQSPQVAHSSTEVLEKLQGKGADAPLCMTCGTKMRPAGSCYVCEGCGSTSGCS
Sequence (D3Q6G1 entry or part of it C933A): as the sequence (D3Q6G1 entry or part of it C370A) above, with A370C, C933A counted along it
parameter-measured: pEC50
Give only the number. pEC50 is defined as minus log10 of concentration in molar units.

Request: Fill in: pEC50 of Nc1ncnc2c1ncn2[C@H]1C[C@H](O)[C@@H](COP(=O)(O)OP(=O)(O)OP(=O)(O)O)O1 is ___
Response: 4.82
